Protocol Details: Oligonucleotide concentrations in tissues by LC-MS/MS after oral gavage in CD-1 mice (Example 7)
Assay type: in vivo
Experimental Context: 500 mg/kg oral gavage once daily for 4 weeks, 48 hours after last dose, ileum
Readout Type: Oligonucleotide concentration, Ileum (µg/g)
Give your result in µg/g as a bare value.

Some solved entries appear below for comparison.
                                  substance  assay_value
0  830037 (antisense CTATTGGCTGATCTGG; 3-10-3 cEt gapmer, further chemistry not given here) [compound 830037]          2.7
1  829994 (GGAGGCAGGGCCGCGA; 3-10-3 cEt gapmer, further chemistry not given here) [compound 829994]          4.0
2  790615 (CCAATGAGAATGCTTC; 3-10-3 cEt gapmer, further chemistry not given here) [compound 790615]          1.6

Fill in: Oligonucleotide concentration, Ileum of 798781 (CGTAAGATTCACAGCA; 3-10-3 cEt gapmer, further chemistry not given here) [compound 798781] is ___ 2.9

Please give the measured Oligonucleotide concentration, Ileum for this substance: 830121 (AGAATCAAGCCCTGGC; 3-10-3 cEt gapmer, further chemistry not given here) [compound 830121] 1.1

I have this substance here, 830025 (antisense TTTGTAAATCGAAAGC; 3-10-3 cEt gapmer, further chemistry not given here) [compound 830025] , and I need its recorded Oligonucleotide concentration, Ileum. 1.9

====

Test system: human SMAD7 mRNA
Protocol Details: Antisense inhibition of human SMAD7 mRNA expression in Hep3B cells by 5-10-5 MOE gapmers, single concentration, electroporation, RT-PCR (Example 1, Study 1 and 2)
Type: cell-based
Experimental Context: electroporation, 15,000 nM, approximately 24 hours, relative to untreated control cells, gapmers targeting SEQ ID NO: 1 and 2
Strand notation (5' to 3'): a small letter for the sugar, then the base; units joined by * are phosphorothioate-linked, units joined directly phosphodiester-linked; [ ] holds rarer units or linkages, { } end groups; capitals alone tell only the bases. e = 2'-O-(2-methoxyethyl) (MOE); [5mC] = 5-methylcytosine; d = 2'-deoxy (DNA)
Readout Type: % inhibition of SMAD7 mRNA expression (%)
API: value field is a number in %; no unit string.

Below, each entry is followed by its recorded % inhibition of SMAD7 mRNA expression result.
Substance	% inhibition of SMAD7 mRNA expression [%]
771821 (antisense eG*eT*eT*e[5mC]*e[5mC]*dT*dT*dA*dT*dA*dG*dA*dT*dT*dA*eT*e[5mC]*e[5mC]*eA*eA) [compound 771821]	60
771701 (antisense eG*eG*eT*eA*eT*dG*d[5mC]*dA*d[5mC]*dA*d[5mC]*dT*d[5mC]*dT*d[5mC]*e[5mC]*e[5mC]*eA*eG*eG) [compound 771701]	34
771446 (e[5mC]*eA*e[5mC]*eA*eG*d[5mC]*d[5mC]*dT*d[5mC]*dT*dT*dG*dA*d[5mC]*dT*eT*e[5mC]*e[5mC]*eG*eA; antisense) [compound 771446]	55

Quick one: % inhibition of SMAD7 mRNA expression of 771797 (antisense eG*e[5mC]*eA*e[5mC]*eA*dG*dA*d[5mC]*dT*dG*d[5mC]*d[5mC]*dA*dA*dA*eT*e[5mC]*eA*e[5mC]*eA) [compound 771797] ? 62

Value lookup for % inhibition of SMAD7 mRNA expression; key = 771438 (e[5mC]*e[5mC]*eA*e[5mC]*eG*dG*d[5mC]*d[5mC]*dT*dG*dG*dA*dG*d[5mC]*dA*eG*e[5mC]*eA*eG*e[5mC]; antisense) [compound 771438] 26

Find the recorded % inhibition of SMAD7 mRNA expression belonging to 771605 (antisense eG*eG*e[5mC]*eT*eG*d[5mC]*d[5mC]*d[5mC]*d[5mC]*dG*dG*d[5mC]*dA*dG*d[5mC]*e[5mC]*e[5mC]*eT*eT*eG) [compound 771605] and report it. 26

Recorded % inhibition of SMAD7 mRNA expression of 771765 (antisense e[5mC]*e[5mC]*eA*eA*eG*d[5mC]*d[5mC]*dA*dG*dG*dA*dG*d[5mC]*dT*dG*e[5mC]*eT*eT*eA*eA) [compound 771765] , please. 48

Give the measured % inhibition of SMAD7 mRNA expression of 771661 (antisense eA*eA*eT*eG*e[5mC]*dT*dT*d[5mC]*dT*d[5mC]*dT*dT*dG*dT*dT*e[5mC]*eA*eT*eT*eT) [compound 771661] . 69

Find the recorded % inhibition of SMAD7 mRNA expression belonging to 771533 (antisense e[5mC]*eA*eA*eA*e[5mC]*dG*dA*dG*dG*dA*d[5mC]*dG*dA*dG*dA*eA*eG*eA*eA*eG) [compound 771533] and report it. 2

Endpoint output: % inhibition of SMAD7 mRNA expression of 771885 (antisense e[5mC]*eA*eA*eG*eT*d[5mC]*dT*d[5mC]*dT*dT*dA*d[5mC]*d[5mC]*dT*d[5mC]*eA*e[5mC]*e[5mC]*e[5mC]*eA) [compound 771885] . Value? 60

Given 771637 (antisense eT*eG*eG*eT*eA*d[5mC]*d[5mC]*dT*dT*dG*dG*dG*dT*dT*dA*eT*eG*eA*e[5mC]*eG) [compound 771637] , state its recorded % inhibition of SMAD7 mRNA expression. 23

Fill in the blank: the reported % inhibition of SMAD7 mRNA expression of 771352 (antisense eT*e[5mC]*e[5mC]*eA*eA*d[5mC]*dT*d[5mC]*dT*d[5mC]*dT*dT*dT*dG*d[5mC]*e[5mC]*e[5mC]*e[5mC]*eA*eA) [compound 771352] is ____. 54

Any idea what % inhibition of SMAD7 mRNA expression was measured for 771400 (antisense e[5mC]*eG*eA*e[5mC]*eA*dG*d[5mC]*dA*dG*d[5mC]*dA*dG*d[5mC]*dA*dG*e[5mC]*eA*eG*eG*eG) [compound 771400] ? 52

What measured % inhibition of SMAD7 mRNA expression goes with 771693 (antisense eT*e[5mC]*e[5mC]*e[5mC]*eA*dG*dG*dA*dG*dG*dG*dT*dA*dT*dG*e[5mC]*eA*e[5mC]*eA*e[5mC]) [compound 771693] ? 45
